Entry source: PubChem BioAssay (EPA / NIEHS)

Test method notes: APR_HepG2_MicrotubuleCSK_24hr: Apredica 24-hour HepG2 Assay for Microtubule CSK Stabilty (AID 2282909)
Recorded conditions: HepG2 microtubule cytoskeleton imaging, actives raise or lower the signal
Calls of active or inactive are those of the source. Rule for the calls: active = hit-call score of the fitted dose curve at least 0.9, where 1 is the maximum; inactive = score below 0.9.
Could you please pick one outcome from this set? active, inactive

Answered cases to consult:
CCCCCCCCc1ccc(O)cc1	inactive
ClC1(Cl)C2(Cl)C3(Cl)C4(Cl)C(Cl)(Cl)C5(Cl)C3(Cl)C1(Cl)C5(Cl)C24Cl (stereo not drawn)	inactive
CCC(=O)C(CC(C)N(C)C)(c1ccccc1)c1ccccc1 (stereo not drawn)	inactive

Req: In this assay, the call recorded for O=C(Nc1ccc2[nH]ccc2c1)c1cc2cc(F)ccc2n1Cc1cccc(F)c1 was what?
Resp: active

Req: Could you check what this test reported for CN(C)N=O ?
Resp: inactive

Req: Please let me know the test result on file for CC(C)(OO)c1ccccc1 .
Resp: active

Req: Which outcome was assigned to CC(C)(c1ccccc1)c1ccc(O)c(C(C)(C)c2ccccc2)c1 in this test?
Resp: inactive

Req: In this assay, the call recorded for O=C(O)C(Cl)(Cl)Cl was what?
Resp: inactive

* * *

Read-out: TIMP metallopeptidase inhibitor 2 (TIMP2), TIMP2 (gene 7077)
Test method notes: BSK_KF3CT_TIMP2: BioMAP Diversity Plus: KF3CT Assay for TIMP metallopeptidase inhibitor 2 (TIMP2) Biomarker Activity (AID 2283071)
Recorded conditions: primary human keratinocytes with fibroblasts; actives raise or lower the signal
Activity calls are given as the source filed them. The calls were made as follows: active = hit-call score of the fitted dose curve at least 0.9, where 1 is the maximum; inactive = score below 0.9.
Respond using exactly one of the listed classes: Y for active, N for inactive

Req: Just curious, what result did OCc1ccco1 get here?
Resp: N

Req: Kindly provide the recorded test outcome for the following molecule: Oc1ccc(-c2ccccc2)cc1
Resp: N

Req: Assay outcome for COP(=S)(OC)Oc1c(Cl)cc(C)cc1Cl : what was it?
Resp: N

Req: Called result for CCNc1nc(NC(C)(C)C)nc(SC)n1
Resp: Y

Req: Check the results log: what was the call for O=C(OC1CCCCC1)c1ccccc1C(=O)OC1CCCCC1 ?
Resp: Y

Req: Lab log entry: O=S(=O)(c1ccc(Cl)cc1)c1ccc(Cl)cc1 — outcome as called in the assay?
Resp: N

* * *

Read-out: Interleukin-8 (IL8), CXCL8 (gene 3576)
Test method notes: BSK_hDFCGF_IL8: BioMAP Diversity Plus: hDFCGF Assay for Interleukin-8 (IL8) Biomarker Activity (AID 2283058)
Recorded conditions: primary human foreskin fibroblasts; actives raise or lower the signal
Calls of active or inactive are those of the source. The calls were made as follows: active = hit-call score of the fitted dose curve at least 0.9, where 1 is the maximum; inactive = score below 0.9.
Observable: outcome

O=C(O)C(Cl)(Cl)Cl	inactive
BrCCBr	inactive
COC(=O)c1sccc1S(=O)(=O)NC(=O)Nc1nc(C)nc(OC)n1	inactive

* * *

Test method notes: Tanguay_ZF_120hpf_MORT_legacy: (Legacy) Oregon State University Tanguay Lab 120 Hour Post-fertilization zebrafish Assay for Mortality (AID 2283633)
Calls of active or inactive are those of the source. The calls were made as follows: active = hit-call score of the fitted dose curve at least 0.9, where 1 is the maximum; inconclusive = response in the unintended direction; inactive = score below 0.9.
Answer with one of the outcomes label 1 (active), label 0 (inactive)

Past entries and their recorded results:
CCOP(=S)(OCC)Oc1nc(Cl)c(Cl)cc1Cl	label 0
CC12CC1(C)C(=O)N(c1cc(Cl)cc(Cl)c1)C2=O (stereo not drawn)	label 0
CC(C)(C)c1cc(O)ccc1O	label 1
CCC(C)(C)c1ccc(O)c(C(C)(C)CC)c1	label 0
O=C1C2(Cl)C3(Cl)C4(Cl)C(Cl)(Cl)C5(Cl)C3(Cl)C1(Cl)C5(Cl)C24Cl (stereo not drawn)	label 0

Req: # outcome recorded in this test, key = Cc1ccccc1N
Resp: label 0

Req: What was the test verdict on O=C(O)C(F)(F)C(F)(F)C(F)(F)C(F)(F)C(F)(F)C(F)(F)F ?
Resp: label 0

Req: Test call, this compound: Cn1sc(Cl)cc1=O
Resp: label 1

* * *

Test method notes: ATG_GATA_CIS: Attagene CIS-FACTORIAL HepG2 Assay for human GATA Binding Protein (AID 2282944)
Recorded conditions: HepG2 GATA cis-element reporter, Attagene multiplex mRNA; actives raise or lower the signal
Procedure: ATG_CIS is a cell-based, multiplexed-readout assay that uses HepG2, a human liver cell line, with measurements taken at 24 hours after chemical dosing in a 24-well plate.ATG_GATA_CIS is one of 52 assay component(s) measured or calculated from the ATG_CIS assay. […] This assay endpoint, ATG_GATA_CIS, was analyzed with bidirectional fitting relative to DMSO as the negative control and baseline of activity. […]
Calls of active or inactive are those of the source. How the source made its calls: active means hit-call score of the fitted dose curve at least 0.9, where 1 is the maximum; inactive means score below 0.9.
The reply should be one of these categories: yes = active, no = inactive

Use the examples below as a reference point.
CCc1ccccc1N	no
CCOP(=S)(OCC)Oc1ccc(S(C)=O)cc1 (centres undefined)	no

Req: Hello, I am checking results. What call was entered for CCCCCCCCSC(=O)Oc1cc(Cl)nnc1-c1ccccc1 ?
Resp: yes

Req: Which outcome was entered for the compound Cc1ccccc1C(=O)Nc1cccc(OC(C)C)c1 in this test?
Resp: no

* * *

Target or test system: Muscarinic acetylcholine receptor M2 (Homo sapiens)
Test method notes: NVS_GPCR_hM2: NovaScreen (NVS) G Protein-Coupled Receptor Assay for human Muscarinic, M2 Receptor (AID 2283273)
Results filed as inconclusive are left out. Active and inactive are the calls of the source. The calls were made as follows: active = hit-call score of the fitted dose curve at least 0.9, where 1 is the maximum; inconclusive = response in the unintended direction; inactive = score below 0.9.
Hi! Could you answer with just one of these? active, inactive

Consider the worked cases shown below.
CC(=O)[O][Hg][c]1ccccc1	active
O=C1C2(Cl)C3(Cl)C4(Cl)C(Cl)(Cl)C5(Cl)C3(Cl)C1(Cl)C5(Cl)C24Cl (stereo not given)	inactive

Req: Per the assay record, what outcome was assigned to CCC(=O)C(CC(C)N(C)C)(c1ccccc1)c1ccccc1 (stereo not given) ?
Resp: active

Req: Fill in: this test's call for CC(C)(C)CC(C)(C)c1ccc(O)cc1 is ___
Resp: inactive

Req: Assay outcome for C=C(C)C(=O)[O][Sn]([CH2]CCC)([CH2]CCC)[CH2]CCC : what was it?
Resp: active

* * *

Read-out: Potassium channel subfamily K member 1 (KCNK1), KCNK1 (gene 3775)
Test method notes: LTEA_HepaRG_KCNK1: Life Technologies and Expression Analysis (LTEA) Assay for Potassium channel subfamily K member 1 (KCNK1) using HepaRG (AID 2283511)
Recorded conditions: mRNA level, 48 h; actives raise or lower the signal
Activity calls are given as the source filed them. How the source made its calls: active means hit-call score of the fitted dose curve at least 0.9, where 1 is the maximum; inactive means score below 0.9.
// one of active, inactive, no free text

These solved cases illustrate the format of a correct answer.
O=C(O)C(Cl)(Cl)Cl	inactive
CCCCCCCCc1ccc(O)cc1	inactive
CC(C)(c1ccccc1)c1ccc(O)c(C(C)(C)c2ccccc2)c1	inactive
C[C@]12CCC(=O)C[C@@H]1CC[C@@H]1[C@@H]2CC[C@]2(C)[C@@H](O)CC[C@@H]12	inactive

Req: For this compound, state the assay outcome: CCN1CCC2(CC1)COc1cc3c(cc12)N(C(=O)c1ccc(-c2ccc(-c4nnc(C)o4)cc2C)cc1)CC3
Resp: active

* * *

Target or test system: Estrogen receptor (Homo sapiens) + Estrogen receptor beta (Homo sapiens) (UniProt P03372+Q92731)
Sequence (P03372 whole entry, looked up, the tested form may be a part): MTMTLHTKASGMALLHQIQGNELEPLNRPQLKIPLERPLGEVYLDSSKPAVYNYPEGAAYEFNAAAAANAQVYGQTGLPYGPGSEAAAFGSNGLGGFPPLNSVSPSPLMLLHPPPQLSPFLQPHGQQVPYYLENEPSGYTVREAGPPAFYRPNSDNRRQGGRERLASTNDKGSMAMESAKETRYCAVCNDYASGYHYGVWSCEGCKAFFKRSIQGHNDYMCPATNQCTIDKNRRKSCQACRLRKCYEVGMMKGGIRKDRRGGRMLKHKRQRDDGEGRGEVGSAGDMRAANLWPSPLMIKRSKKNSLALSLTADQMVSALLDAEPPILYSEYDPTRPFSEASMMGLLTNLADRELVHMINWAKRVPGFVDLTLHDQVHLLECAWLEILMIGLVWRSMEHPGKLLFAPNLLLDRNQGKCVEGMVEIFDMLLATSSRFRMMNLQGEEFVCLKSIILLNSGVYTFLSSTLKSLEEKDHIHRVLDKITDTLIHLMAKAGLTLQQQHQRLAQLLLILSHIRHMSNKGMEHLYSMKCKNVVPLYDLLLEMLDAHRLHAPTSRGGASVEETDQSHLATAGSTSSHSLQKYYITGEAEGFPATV
Sequence (Q92731 whole entry, looked up, the tested form may be a part): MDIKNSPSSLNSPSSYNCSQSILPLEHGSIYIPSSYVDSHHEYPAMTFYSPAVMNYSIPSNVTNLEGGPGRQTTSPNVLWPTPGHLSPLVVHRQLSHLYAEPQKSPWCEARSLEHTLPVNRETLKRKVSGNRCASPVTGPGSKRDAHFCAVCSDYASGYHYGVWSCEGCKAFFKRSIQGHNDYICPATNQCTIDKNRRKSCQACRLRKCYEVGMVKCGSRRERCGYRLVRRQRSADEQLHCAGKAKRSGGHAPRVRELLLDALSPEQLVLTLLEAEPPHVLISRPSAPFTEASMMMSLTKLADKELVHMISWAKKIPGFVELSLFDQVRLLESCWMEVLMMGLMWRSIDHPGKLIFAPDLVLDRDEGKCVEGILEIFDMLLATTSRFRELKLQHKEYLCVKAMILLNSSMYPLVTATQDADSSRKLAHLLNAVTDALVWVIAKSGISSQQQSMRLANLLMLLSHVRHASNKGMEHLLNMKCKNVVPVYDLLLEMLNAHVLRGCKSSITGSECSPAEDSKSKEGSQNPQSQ
Test method notes: OT_ER_ERaERb_1440: Odyssey Thera (OT) 24-hour HEK293T Protein-Complementation Assay for Estrogen Receptor-alpha/-beta Homodimer (AID 2283356);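 note: heteromer of ER alpha and ER beta binding domains; hits raise reporter fluorescence and both agonists and antagonists give an increase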
Results filed as inconclusive are left out. Active and inactive are the calls of the source. Rule for the calls: active = hit-call score of the fitted dose curve at least 0.9, where 1 is the maximum; inconclusive = response in the unintended direction; inactive = score below 0.9.
Result category, one only: active, inactive

Some solved cases for reference:
Cc1ccc2ccccc2c1C	inactive
CC1(C)Cc2cccc(O)c2O1	inactive
BrCCBr	inactive

Req: Test call, this molecule: Fc1ccc(C2(Cn3cncn3)OC2c2ccccc2Cl)cc1 (configuration not stated)
Resp: active

Req: # outcome recorded in this test, key = OCc1ccco1
Resp: inactive

Req: Assay result, entry COC(=O)c1sccc1S(=O)(=O)NC(=O)Nc1nc(C)nc(OC)n1 — outcome?
Resp: inactive

* * *

Test method notes: ATG_AP_1_CIS: Attagene CIS-FACTORIAL HepG2 Assay for human Activator Protein 1 (AP-1) (AID 2282931)
Recorded conditions: HepG2 Attagene cis-factorial AP-1 reporter mRNA; actives raise or lower the signal
The source made the active and inactive calls. Rule for the calls: active = hit-call score of the fitted dose curve at least 0.9, where 1 is the maximum; inactive = score below 0.9.
Respond with a class label; see active, inactive

Please review the entries below; each comes with its answer.
CCOC(=O)CP(=O)(OCC)OCC	inactive
O=C(Nc1ccc2[nH]ccc2c1)c1cc2cc(F)ccc2n1Cc1cccc(F)c1	active
CC1(C)CCC(Cc2ccc(Cl)cc2)C1(O)Cn1cncn1 (stereo not drawn)	active
Cl/C=C\C[N+]12CN3CN(CN(C3)C1)C2	active
CC(C)(c1ccccc1)c1ccc(O)c(C(C)(C)c2ccccc2)c1	active

Req: What classification did O=[N+]([O-])c1c(Cl)c(Cl)cc(Cl)c1Cl end up with in this test?
Resp: inactive

Req: Tell me the assay call for CCC1(c2ccc(N)cc2)CCC(=O)NC1=O (stereo not drawn) please.
Resp: inactive

Req: Field: outcome | Entry: COP(=S)(OC)Oc1ccc(Sc2ccc(OP(=S)(OC)OC)cc2)cc1
Resp: inactive

Req: Dear all, I need the recorded test outcome for O=C(NCO)NCO , thank you.
Resp: inactive

Req: What outcome does the record of this test show for O=Cc1cccc(Oc2ccccc2)c1 ?
Resp: inactive

Req: What was the test verdict on CC(=O)C=C(C)C ?
Resp: inactive

Req: Would you mind telling me which call this test gave Nc1cccc2ccccc12 ?
Resp: inactive

Req: // return assay outcome for C=CC#N
Resp: inactive

Req: Field: outcome | Entry: ClCC(Cl)CCl
Resp: inactive

Req: State the result this test recorded for O=CC=O .
Resp: inactive

Req: # lookup: test call for COc1cccc(C=O)c1
Resp: inactive

Req: Tell me the assay call for [O-][Cl+2]([O-])O please.
Resp: inactive

Req: What was the test verdict on CCCCCCCCCl ?
Resp: inactive

Req: Any idea what this test logged for Nc1ccc(-c2ccc(N)c(Cl)c2)cc1Cl ?
Resp: inactive

Req: # outcome recorded in this test, key = N#Cc1ccccn1
Resp: inactive

Req: Which outcome was assigned to O=C(O)Cc1ccccc1 in this test?
Resp: inactive

Req: Hey, what did the test say about C[C@H]1O[C@@H](O[C@H]2[C@@H](O)C[C@H](O[C@H]3[C@@H](O)C[C@H](O[C@H]4CC[C@@]5(C)[C@H](CC[C@@H]6[C@@H]5CC[C@]5(C)[C@@H](C7=CC(=O)OC7)CC[C@]65O)C4)O[C@@H]3C)O[C@@H]2C)C[C@H](O)[C@@H]1O ?
Resp: active
